- procedure-details: Hygroscopicity test (DVS)
- Assay type: physicochemical
- test-context: 80% RH at 25° C.
readout: hygroscopicity (in words)

CCN1CCN(Cc2ccc(Nc3ncc4c(n3)-c3c(nc(C5CC5)n3C(C)C)C4)nc2)CC1 [Crystal form I]; has hygroscopicity
CCN1CCN(Cc2ccc(Nc3ncc4c(n3)-c3c(nc(C5CC5)n3C(C)C)C4)nc2)CC1 [Crystal form B-1]; has hygroscopicity

---

- procedure-details: Solubility experiment
- Assay type: physicochemical
- test-context: medium pH4.5; calculated for crystal form I
readout: Solubility (mg/mL)

(a) CCN1CCN(Cc2ccc(Nc3ncc4c(n3)-c3c(nc(C5CC5)n3C(C)C)C4)nc2)CC1 [Crystal form I]
(b) CCN1CCN(Cc2ccc(Nc3ncc4c(n3)-c3c(nc(C5CC5)n3C(C)C)C4)nc2)CC1 [Crystal form A]
Task: // pick larger Solubility from pair: a vs b Your answer should be the label of the entry you select.
Result: b
(b: 14.30 mg/mL, a: 9.66 mg/mL)

---

- procedure-details: Solubility experiment
- Type: physicochemical
- test-context: Tetrahydrofuran; calculated for crystal form I
readout: Solubility (mg/mL)

CCN1CCN(Cc2ccc(Nc3ncc4c(n3)-c3c(nc(C5CC5)n3C(C)C)C4)nc2)CC1 [Crystal form A]; 0.15

(A) CCN1CCN(Cc2ccc(Nc3ncc4c(n3)-c3c(nc(C5CC5)n3C(C)C)C4)nc2)CC1 [Crystal form B-1]
(B) CCN1CCN(Cc2ccc(Nc3ncc4c(n3)-c3c(nc(C5CC5)n3C(C)C)C4)nc2)CC1 [Crystal form K-1]
Task: I would appreciate it if you could say which entry, A or B , has the lower Solubility value. Indicate which entry you chose by stating its label.
Result: A
(A: 0.39 mg/mL, B: 39.09 mg/mL)

---

Below, each entry is listed with its recorded Solubility.
- procedure-details: Solubility experiment
- Assay type: physicochemical
- test-context: Methanol; calculated for crystal form I

The following molecules have reported results that may help.
CCN1CCN(Cc2ccc(Nc3ncc4c(n3)-c3c(nc(C5CC5)n3C(C)C)C4)nc2)CC1 [Crystal form I]; >100 mg/mL
CCN1CCN(Cc2ccc(Nc3ncc4c(n3)-c3c(nc(C5CC5)n3C(C)C)C4)nc2)CC1 [Crystal form B-1]; >45.19 mg/mL
CCN1CCN(Cc2ccc(Nc3ncc4c(n3)-c3c(nc(C5CC5)n3C(C)C)C4)nc2)CC1 [Crystal form K-1]; >30.41 mg/mL

Task: Identify Solubility associated with the molecule CCN1CCN(Cc2ccc(Nc3ncc4c(n3)-c3c(nc(C5CC5)n3C(C)C)C4)nc2)CC1 [Crystal form A]
Result: 41.04 mg/mL

---

- procedure-details: Solubility experiment
- Assay type: physicochemical
- test-context: n-heptane, organic solvent or mixture, thermodynamic from solid, N-heptane; calculated for crystal form I; read-out: Solubility
readout: Solubility

Task: Query Solubility for CCN1CCN(Cc2ccc(Nc3ncc4c(n3)-c3c(nc(C5CC5)n3C(C)C)C4)nc2)CC1 [Crystal form I]
Result: < 2000 µg/mL

---

- procedure-details: Solubility experiment
- Format: physicochemical
- test-context: 0.1 M HCl, simulated gastric fluid, thermodynamic from solid, 0.1 M HCl; calculated for crystal form I; read-out: Solubility
readout: Solubility (mg/mL)
Numbers only; they are read as mg/mL.

Task: Find the measured Solubility of CCN1CCN(Cc2ccc(Nc3ncc4c(n3)-c3c(nc(C5CC5)n3C(C)C)C4)nc2)CC1 [Crystal form I] and report it.
Result: 34.7

All values here come from patent US20210214358A1.
